- experimental target: FGFR1 (UniProt P11362)
- Sequence (P11362 whole entry, looked up): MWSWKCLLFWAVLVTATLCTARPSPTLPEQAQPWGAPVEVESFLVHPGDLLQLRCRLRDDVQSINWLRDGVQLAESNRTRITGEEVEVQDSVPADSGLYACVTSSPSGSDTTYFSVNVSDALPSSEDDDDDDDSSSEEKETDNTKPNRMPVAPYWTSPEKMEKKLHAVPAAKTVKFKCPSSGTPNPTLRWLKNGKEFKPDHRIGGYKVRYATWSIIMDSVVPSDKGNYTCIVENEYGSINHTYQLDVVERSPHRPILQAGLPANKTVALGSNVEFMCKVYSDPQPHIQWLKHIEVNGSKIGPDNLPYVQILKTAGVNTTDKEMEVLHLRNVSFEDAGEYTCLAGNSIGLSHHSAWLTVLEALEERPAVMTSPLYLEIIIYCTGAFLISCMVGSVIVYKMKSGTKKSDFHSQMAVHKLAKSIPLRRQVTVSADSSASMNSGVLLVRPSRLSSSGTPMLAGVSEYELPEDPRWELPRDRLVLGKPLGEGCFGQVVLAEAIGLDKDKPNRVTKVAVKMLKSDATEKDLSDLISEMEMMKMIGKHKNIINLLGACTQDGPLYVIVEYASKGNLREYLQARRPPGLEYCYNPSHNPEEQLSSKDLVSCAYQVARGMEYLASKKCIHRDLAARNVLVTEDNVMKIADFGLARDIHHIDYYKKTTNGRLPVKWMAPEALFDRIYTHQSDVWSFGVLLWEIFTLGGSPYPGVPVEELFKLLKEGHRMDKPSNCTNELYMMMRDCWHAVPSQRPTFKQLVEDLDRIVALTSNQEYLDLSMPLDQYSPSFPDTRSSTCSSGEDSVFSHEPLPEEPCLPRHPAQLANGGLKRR
- assay remarks: phosphorylation enrichment, bacterial display (enrichment ratio); higher = better substrate or ligand; peptides without Tyr show the background;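 also: 11-residue human phosphosite peptides and single-mutation variants displayed on the E. coli surface, counted by deep sequencing, each peptide's frequency after selection divided by its frequency in the unselected input library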;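 also: frequency after pTyr selection over input frequency; kinase dosed for 20-30% of maximal phosphorylation in three min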
property label: phosphorylation enrichment
Returns: the value as a bare number; no unit string appended.

biosequence	experimental target	phosphorylation enrichment
QFPDIYAREEV [CRX_Y67_V66I_YF]	FGFR1 (UniProt P11362)	1.15
AFEQQYSPIPR [NOX1_Y373]	FGFR1 (UniProt P11362)	1.07
LPKVSYMKAID [GLRA1_Y307_V308M]	FGFR1 (UniProt P11362)	0.481

Quick one: phosphorylation enrichment of FRIDHYLGKEM [G6PD_Y202_YF] ?
0.455

Quick one: phosphorylation enrichment of GDYLSYREFHL [ERBIN_Y1107_S1112L] ?
5.4

Quick one: phosphorylation enrichment of SIYKDYYRYNF [PLA2G2D_Y85] ?
13.6

---

- Test system: AncSZ
- assay remarks: phosphorylation enrichment, bacterial display (enrichment ratio); higher = better substrate or ligand; peptides without Tyr show the background
We use 1 as the dividing line for phosphorylation enrichment: on or above the line is yes, below is no.

Solved cases (3 shown):
biosequence	class
HTEGEYSSLEH [IDH3B_Y171_Q166H]	yes
IGEGTSGVVYK [CDK2_Y15_Y15S]	no
KNNDGYIDYAE [MCFD2_Y135]	yes

Entry EGWQVYRLGAR [MISP_Y95] : is its phosphorylation enrichment no less than 1?
no

Entry VLTSKYHGGGG [HBA1_Y141_R142H] : is its phosphorylation enrichment no less than 1?
no

Entry QHVPDYRQNGF [PCDHGA1_Y890_V894G_YF] : is its phosphorylation enrichment no less than 1?
no

Entry NTQRPYFKGGG [TYROBP_Y111_YF] : is its phosphorylation enrichment no less than 1?
no

Entry NTYENYWPFYQ [GATM_Y103_K102N] : is its phosphorylation enrichment no less than 1?
yes

Entry PMFTKYGNGLL [RPGRIP1L_Y196_S199G] : is its phosphorylation enrichment no less than 1?
yes

Entry PVKSEYSSIKL [NPC2_Y119_P120S] : is its phosphorylation enrichment no less than 1?
no

Entry GKSHIYFWTLD [EML2_Y230_E235D] : is its phosphorylation enrichment no less than 1?
yes

Entry FDDGKYVFVVT [RPS6KA3_Y488_YF] : is its phosphorylation enrichment no less than 1?
yes

---

- experimental target: MERTK (UniProt Q12866)
- Sequence (Q12866 whole entry, looked up): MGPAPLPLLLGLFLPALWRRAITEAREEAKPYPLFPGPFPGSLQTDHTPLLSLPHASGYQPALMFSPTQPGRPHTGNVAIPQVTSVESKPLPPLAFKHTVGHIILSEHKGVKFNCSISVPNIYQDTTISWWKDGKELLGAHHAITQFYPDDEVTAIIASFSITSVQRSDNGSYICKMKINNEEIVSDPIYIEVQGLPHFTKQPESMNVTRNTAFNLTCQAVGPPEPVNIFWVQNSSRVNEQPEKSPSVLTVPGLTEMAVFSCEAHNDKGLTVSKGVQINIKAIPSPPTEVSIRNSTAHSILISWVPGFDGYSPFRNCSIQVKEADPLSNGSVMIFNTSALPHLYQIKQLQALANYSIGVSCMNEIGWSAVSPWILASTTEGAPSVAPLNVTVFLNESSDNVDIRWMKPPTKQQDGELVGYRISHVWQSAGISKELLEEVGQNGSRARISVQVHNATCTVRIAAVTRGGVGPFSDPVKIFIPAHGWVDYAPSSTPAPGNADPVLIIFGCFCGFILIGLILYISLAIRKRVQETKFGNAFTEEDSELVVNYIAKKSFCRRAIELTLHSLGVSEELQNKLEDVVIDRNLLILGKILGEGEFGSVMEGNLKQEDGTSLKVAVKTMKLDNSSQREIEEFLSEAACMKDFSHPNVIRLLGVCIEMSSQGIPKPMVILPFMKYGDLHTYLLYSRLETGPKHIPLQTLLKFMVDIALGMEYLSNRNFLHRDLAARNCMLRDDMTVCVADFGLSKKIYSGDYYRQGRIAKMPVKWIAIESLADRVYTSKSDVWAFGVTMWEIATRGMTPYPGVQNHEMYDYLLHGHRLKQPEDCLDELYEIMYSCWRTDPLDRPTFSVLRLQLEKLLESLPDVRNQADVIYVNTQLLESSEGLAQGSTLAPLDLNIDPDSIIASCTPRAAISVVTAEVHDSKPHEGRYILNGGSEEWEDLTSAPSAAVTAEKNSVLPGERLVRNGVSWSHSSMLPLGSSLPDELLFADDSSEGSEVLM
- assay remarks: phosphorylation enrichment, bacterial display (enrichment ratio); higher = better substrate or ligand; peptides without Tyr show the background
Listed below: phosphorylation enrichment values for each entry.
Returns: the value as a bare number; no unit string appended.

These solved cases illustrate the format of a correct answer.
biosequence	property label	observed
PATINYLFEKG [NDUFS8_Y84_P85L]	phosphorylation enrichment	0.36
QKDIFYGLRSL [IGSF10_Y126_T124I]	phosphorylation enrichment	0.844
PSQRRYLFFFS [PTEN_Y174_V175L_YF]	phosphorylation enrichment	0.756
LFRFGYANTSE [SI_Y1233_C1229Y_YF]	phosphorylation enrichment	0.315
KDQGTYEDYVE [MYL6_Y86]	phosphorylation enrichment	0.543

Attention now shifts to the item below.
Recall the recorded phosphorylation enrichment for NWGSPYKSDGC [ZNF347_Y261_N264D] with MERTK (UniProt Q12866) and state it.
0.345

---

- experimental target: Fes (UniProt P07332)
- Sequence (P07332 whole entry, looked up): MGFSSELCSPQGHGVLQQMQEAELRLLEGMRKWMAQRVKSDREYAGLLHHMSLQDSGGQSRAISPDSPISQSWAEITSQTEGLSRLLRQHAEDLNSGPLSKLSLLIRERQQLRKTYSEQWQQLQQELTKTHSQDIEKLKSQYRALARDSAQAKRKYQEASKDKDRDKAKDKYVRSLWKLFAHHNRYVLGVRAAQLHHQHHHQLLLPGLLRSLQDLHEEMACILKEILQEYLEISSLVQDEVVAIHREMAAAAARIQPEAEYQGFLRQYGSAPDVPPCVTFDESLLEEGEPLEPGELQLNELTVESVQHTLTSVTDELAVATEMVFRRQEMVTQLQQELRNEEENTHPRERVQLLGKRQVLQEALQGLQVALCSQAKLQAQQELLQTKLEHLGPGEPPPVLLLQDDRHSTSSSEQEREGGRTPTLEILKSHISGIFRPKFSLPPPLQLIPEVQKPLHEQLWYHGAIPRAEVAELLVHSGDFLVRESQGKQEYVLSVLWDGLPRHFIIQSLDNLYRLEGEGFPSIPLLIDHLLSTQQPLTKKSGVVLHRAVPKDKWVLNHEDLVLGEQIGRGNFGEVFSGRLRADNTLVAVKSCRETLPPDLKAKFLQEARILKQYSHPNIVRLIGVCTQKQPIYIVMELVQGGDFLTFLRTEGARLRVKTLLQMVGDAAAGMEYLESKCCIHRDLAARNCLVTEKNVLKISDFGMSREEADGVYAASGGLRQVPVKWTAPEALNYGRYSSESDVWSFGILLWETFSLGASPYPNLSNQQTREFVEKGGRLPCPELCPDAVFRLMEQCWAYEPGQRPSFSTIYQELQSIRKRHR
- assay remarks: phosphorylation enrichment, bacterial display (enrichment ratio); higher = better substrate or ligand; peptides without Tyr show the background
property label: phosphorylation enrichment
Returns: the value as a bare number; no unit string appended.

biosequence	experimental target	property label	observed
LGRTRYQHVTG [MIPEP_Y510]	Fes (UniProt P07332)	phosphorylation enrichment	0.723

Quick one: phosphorylation enrichment of RESFKYFPSSL [CXXC1_Y218_YF] ?
0.567

Quick one: phosphorylation enrichment of TVSRPYSFIEF [SEC22B_Y110] ?
1.12

Quick one: phosphorylation enrichment of PLQKIYNYNVL [SLC4A1_Y553_T552I] ?
1

Quick one: phosphorylation enrichment of LSVEIHDRREF [ITGB7_Y753_Y753H_YF] ?
1.59

Quick one: phosphorylation enrichment of GQAPGYSFTAA [CYCS_Y47_YF] ?
0.509

Quick one: phosphorylation enrichment of SDFFAYSPVQE [H6PD_Y449_R453Q_YF] ?
1.32

Quick one: phosphorylation enrichment of KELAPYDENWF [RPS19_Y48] ?
1.12

Quick one: phosphorylation enrichment of VNFGAYINFFK [GLB1_Y488_D491Y_YF] ?
1.75

Quick one: phosphorylation enrichment of SSTASYFKAPG [RFX2_Y108_E110K] ?
0.619

Quick one: phosphorylation enrichment of HHTDEYEYDEL [TGM1_Y134] ?
1.59

Quick one: phosphorylation enrichment of VLTSKYHGGGG [HBA1_Y141_R142H] ?
0.549

Quick one: phosphorylation enrichment of ARRMEYLASQK [FGFR2_Y616_G613R] ?
0.557

Quick one: phosphorylation enrichment of DSSIRYLQEIF [FGG_Y135_YF] ?
0.924

Quick one: phosphorylation enrichment of ISDNAYQFMLT [MYH7_Y162_YF] ?
1.19

Quick one: phosphorylation enrichment of TFLRTYTDAMQ [TSPAN7_Y124] ?
0.813

Quick one: phosphorylation enrichment of VKKNRYKDILP [PTPN12_Y64] ?
0.988

Quick one: phosphorylation enrichment of PQAVTYATVKH [LILRB4_Y360_K362T] ?
0.776

---

- System: c-Abl (mouse)
- assay remarks: phosphorylation enrichment, bacterial display (enrichment ratio); higher = better substrate or ligand; peptides without Tyr show the background
property label: phosphorylation enrichment
Returns: the value as a bare number; no unit string appended.

biosequence	property label	observed
SHNELYFEAAE [VANGL1_Y344_E347A_YF]	phosphorylation enrichment	0.624

Quick one: phosphorylation enrichment of LNCAGYCDALE [MTUS1_Y151] ?
0.917

Quick one: phosphorylation enrichment of QRASDYYSQQM [GBP6_Y333_A331S] ?
0.486

Quick one: phosphorylation enrichment of LEAVSYSSPYA [RNLS_Y190_R193P] ?
2.02

Quick one: phosphorylation enrichment of GGKYSYLKVGH [GRM3_Y480] ?
0.666

Quick one: phosphorylation enrichment of IIAVHYVLEES [RYR2_Y4559] ?
0.676

Quick one: phosphorylation enrichment of PKGTGCIKTEL [STAT1_Y701_Y701C] ?
1.04

Quick one: phosphorylation enrichment of IGSQRYQLGVR [RB1_Y446_K447Q] ?
0.451

---

- System: c-Abl (mouse)
- assay remarks: phosphorylation enrichment, bacterial display (enrichment ratio); higher = better substrate or ligand; peptides without Tyr show the background
property label: phosphorylation enrichment
Returns: the value as a bare number; no unit string appended.

biosequence	observed
NTQRPYFKGGG [TYROBP_Y111_YF]	0.574
MAYDRYVAICS [OR8D4_Y123_C120Y]	1.03
CTTIHYNFICN [TP53_Y234_M237I_YF]	0.787
FSKQIYKGMVA [PCDH15_Y931_R929Q]	0.42
KKGIVYIFNGR [ITGAV_Y404]	0.565

Attention now shifts to the item below.
Quick one: phosphorylation enrichment of PGNIVYSSLCG [BCOR_Y90] ?
1.83

---

Listed below: phosphorylation enrichment values for each entry.
- Test system: c-Src
- assay remarks: phosphorylation enrichment, bacterial display (enrichment ratio); higher = better substrate or ligand; peptides without Tyr show the background

These solved cases illustrate the format of a correct answer.
biosequence	phosphorylation enrichment
RSSGGYEPRGR [FUS_Y239]	0.358
KEEEDYKEENN [BMS1_Y651]	0.453
GACGGYCSVLG [RAB18_Y202]	0.509
QRRNVYFFSFL [PTEN_Y176_Y174N_YF]	0.67
ALDRPYTSKHS [NANS_Y71_E68D]	0.542
KFDLMYAKCAF [TUBA1A_Y399_R402C]	0.598

Recall the recorded phosphorylation enrichment for SDFFAYSPVQE [H6PD_Y449_R453Q_YF] with c-Src and state it.
0.611

Recall the recorded phosphorylation enrichment for HRDDGYMPMSP [IRS1_Y612_T608R] with c-Src and state it.
0.589

Recall the recorded phosphorylation enrichment for LHRAHYDLHHT [AHSG_Y314_R317H] with c-Src and state it.
0.505

Recall the recorded phosphorylation enrichment for AGVIIYTSRFQ [PFAS_Y538_A535V] with c-Src and state it.
0.578

Recall the recorded phosphorylation enrichment for IGVGSYSVCKR [RPS6KA3_Y433] with c-Src and state it.
0.362

Recall the recorded phosphorylation enrichment for SSVKLYRVYCD [FGB_Y266_P265L] with c-Src and state it.
0.525

Recall the recorded phosphorylation enrichment for KDHRDYKYQPR [SOX9_Y172_P170R] with c-Src and state it.
0.426

Recall the recorded phosphorylation enrichment for CLRIDYERVSQ [DSP_Y1542_R1537C] with c-Src and state it.
0.517
